B1: VH:VL chains; a variant is named by its letters at X, in order (parent)
chain 1: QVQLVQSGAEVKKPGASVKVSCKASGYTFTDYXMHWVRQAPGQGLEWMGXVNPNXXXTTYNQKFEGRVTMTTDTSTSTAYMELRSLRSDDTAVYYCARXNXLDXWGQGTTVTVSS
chain 2: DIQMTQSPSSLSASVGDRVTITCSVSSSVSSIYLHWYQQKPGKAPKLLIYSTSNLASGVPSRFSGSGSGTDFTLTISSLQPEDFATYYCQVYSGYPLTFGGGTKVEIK

Variants of: B1
Test: yeast display scFab, FACS + sequencing
quantity name: non-specific binding call

Worked cases, answers included:
| residue change | reported |
| --- | --- |
| VTEEGSWV | no binding |
| VRARGAAD | no binding |
| ARARGSGA | binds |
| VATTDSVD | no binding |
| YGTATFLV | binds |
| YEGGTDGA | no binding |

// sample VRGRGYGV , its non-specific binding call was binds

// sample VEEEGDSA , its non-specific binding call was no binding

// sample FRRRGAWY , its non-specific binding call was binds

// sample DAAGAAGV , its non-specific binding call was no binding

// sample VKGRGVGA , its non-specific binding call was binds

// sample FRGESAGA , its non-specific binding call was binds

// sample VEGGGFSV , its non-specific binding call was no binding
